Test system: Botrytis cinerea mutant G111V
Test: Activity against Botrytis cinerea in the microtiter test, mutant G111V
Type: cell-based
Details: {}
Method: The active substances were formulated separately as a stock solution in dimethyl sulfoxide (DMSO) at a concentration of 10 000 ppm. […] The antifungal activity was determined by measuring the turbidity of a culture in 96-well microplates in the presence of test compounds after 7 days incubation at 620 nm. […]
MEASURED_PARAMETER: Relative antifungal activity expressed as IC50, G111V

In the examples that follow, each entry is paired with its recorded Relative antifungal activity expressed as IC50, G111V.
{"MOLECULE": "Cc1cc(C2=NC(C)(C)COc3ccccc32)cnc1C [compound 51]", "VALUE_MEASURED": "AA AA AA"}
{"MOLECULE": "Cc1ccc(S(=O)(=O)N2c3ccccc3C(c3cnc(C)c(C)c3)=NC2(C)C)cc1 [compound 42]", "VALUE_MEASURED": "AA AA AA AA"}
{"MOLECULE": "Cc1cc(C2=NC(C(C)(C)C)Oc3ccccc32)cnc1C (stereo not shown) [Ex-18]", "VALUE_MEASURED": "AA AA AA AA"}
{"MOLECULE": "Cc1cc(C2=NC(C)(C)Oc3c2cccc3C(C)(C)C)cnc1C [Ex-15]", "VALUE_MEASURED": "AA AA AA"}
{"MOLECULE": "Cc1cc(C2=NC3(COC3)Oc3ccccc32)cnc1C [Ex-26]", "VALUE_MEASURED": "AA AA AA AA"}

# evaluate next
Exam item: Missing value: Relative antifungal activity expressed as IC50, G111V, Botrytis cinerea mutant G111V, entry Cc1cc(C2=NC(C)(C)Nc3ccccc32)cnc1C [compound 39] . Fill in?
Marked response: AA AA AA AA
